Each entry below carries its recorded protein stability index.
protocol: protein stability index of a GFP-peptide fusion (GPS, HEK-293T) (PSI 1-6); higher = more stable;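 also: 24-mer peptide tiles fused after GFP, lentivirally expressed, FACS-sorted into six equal bins by GFP/DsRed ratio, decoded by Illumina sequencing, PSI is the read-weighted mean bin number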
run-parameters: treatment: MLN4924 1 uM, 8 h; c terminus: a fixed tail appended
Reply with the value as a number alone.

Solved cases below.
[
  {
    "residue-sequence": "ADWLGLKDEDLDLFPASPTREAHR [FBF1]",
    "reading": 4.61
  },
  {
    "residue-sequence": "QELIETNQQLRNELQLEQSRAANQ [CEP70]",
    "reading": 5.05
  },
  {
    "residue-sequence": "RFPLDSAQDPDVGTNTVSFYTLSP [PCDHGC5]",
    "reading": 3.88
  },
  {
    "residue-sequence": "RFVQAEGRRATLQRLVEALEENEL [TRADD]",
    "reading": 3.62
  },
  {
    "residue-sequence": "MTTPAGSGSGFGSVSWWGLSPALD [DNAAF3]",
    "reading": 2.75
  },
  {
    "residue-sequence": "KTVDKHSDEYKIRRERNNIAVRKS [CEBPB]",
    "reading": 4.79
  },
  {
    "residue-sequence": "GKGSIKELFPTGKQLEPLVAPLAD [VPS39]",
    "reading": 4.08
  },
  {
    "residue-sequence": "LEKKNEALKERADSLAKEIQYLKD [ATF4]",
    "reading": 4.45
  },
  {
    "residue-sequence": "VLQENYTHLPKADIFALALTVVCA [WEE1]",
    "reading": 2.38
  },
  {
    "residue-sequence": "ALPVPVIVSNFNYFYHRETENEEQ [KCNA4]",
    "reading": 3.57
  }
]

# input for lookup
Ask: Please give the documented protein stability index of AAALKCQLCEKAPKEATVMCEQCD [TRIM9]
Reply: 5.4

###

Each entry below carries its recorded protein stability index.
protocol: protein stability index of a GFP-peptide fusion (GPS, HEK-293T) (PSI 1-6); higher = more stable
run-parameters: treatment: DMSO; c terminus: a fixed tail appended
Reply with the value as a number alone.

Ask: Please give the documented protein stability index of LKNPFFRYTGTTPSPPPGSHYTSP [CARM1]
Reply: 2.9

Ask: Please give the documented protein stability index of ALCLEVRPTYFEMKNEKLLSKASE [RNF180]
Reply: 3.51

Ask: Please give the documented protein stability index of RRGVSDWDLRMKLHDRGAQVIHPQ [DNAAF3]
Reply: 3.58

Ask: Please give the documented protein stability index of VLQIDNAKLAADDFRTKYETELSL [KRT36]
Reply: 3.54

Ask: Please give the documented protein stability index of TERGLSRKHIIEGLKASLERLQLE [KCNAB2]
Reply: 2.5

Ask: Please give the documented protein stability index of DEDLRRQMQDDEQKTRLLEDSVSR [PALM]
Reply: 5.46

Ask: Please give the documented protein stability index of AKADTTSTVTPVPGQEKGSALEGR [EHMT1]
Reply: 5.3

Ask: Please give the documented protein stability index of DFGDMHSYVRSRKRLREEEAARLF [TRIB1]
Reply: 3.5

Ask: Please give the documented protein stability index of AGTGASRSSHSSDSGGSDVDLDPT [ELF3]
Reply: 5.59

Ask: Please give the documented protein stability index of SRLVKYPLLLKEILKHTPKEHPDV [NET1]
Reply: 2.71

Ask: Please give the documented protein stability index of VKNDRDRVGHKSIPMRNLRARPAK [SERPINB5]
Reply: 3.98

Ask: Please give the documented protein stability index of RQHIPDTYLCERCQPRNLDKERAV [KMT2E]
Reply: 2.81

Ask: Please give the documented protein stability index of PDNWFCYPCIPNHELVWAKMKGFG [ZMYND11]
Reply: 2.43

###

Each entry below carries its recorded protein stability index.
protocol: protein stability index of a GFP-peptide fusion (GPS, HEK-293T) (PSI 1-6); higher = more stable
run-parameters: treatment: MLN4924 1 uM, 8 h; c terminus: a fixed tail appended

Solved cases below.
[
  {
    "residue-sequence": "PVLGSSSGAGHGSGSGSGPGCGSV [SPAG8]",
    "protein stability index": 4.92
  },
  {
    "residue-sequence": "VQSYMEHYCNSSTDRRVLLMFLDI [SPACA9]",
    "protein stability index": 2.71
  },
  {
    "residue-sequence": "FKHTLSISRALLSDVVPEKERPLV [MFSD9]",
    "protein stability index": 3.24
  }
]

Ask: Please give the documented protein stability index of LVGLATAAFGHVQRAEMLPKTSGT [CPOX]
Reply: 2.91

Ask: Please give the documented protein stability index of RLAQVKRKILVLDLDETLIHSHHD [CTDNEP1]
Reply: 2.58

Ask: Please give the documented protein stability index of KSIGSEPHEDHVFLVANFSQIETL [MATN2]
Reply: 2.8

Ask: Please give the documented protein stability index of EEPSNKRVRPLARVTSLANLISPV [NET1]
Reply: 3.44

Ask: Please give the documented protein stability index of RRRSRKKPSGALGSESYKSSAGSA [EHMT1]
Reply: 5.3

Ask: Please give the documented protein stability index of FQVLCSINSIIHNPRAPVIIYKQT [CEP70]
Reply: 2.6

Ask: Please give the documented protein stability index of KPWDFPSVHNDLWESWFVPDPAGI [GLT8D2]
Reply: 2.69

Ask: Please give the documented protein stability index of SRRIPSTDANLPSGGKGFKLRRQP [RAB22A]
Reply: 4.25

Ask: Please give the documented protein stability index of LKSLIRLVKHWYQNCKKKLGKLPP [OAS1]
Reply: 3.02

Ask: Please give the documented protein stability index of PTPTSLEVSSPPDTTEEVDHKPKL [PDZK1]
Reply: 5.54

Ask: Please give the documented protein stability index of AGARKIYAVEASTMAQHAEVLVKS [CARM1]
Reply: 4.07

Ask: Please give the documented protein stability index of IDPLLYMTEWFMCAFSRTLPWSSV [TBC1D10A]
Reply: 3.16

Ask: Please give the documented protein stability index of WALGVCNNSWIRKNSTMVNSEDIF [TRIM43]
Reply: 2.12

Ask: Please give the documented protein stability index of RRMTVVGRLEGLIQPDDLINQLTF [FAF2]
Reply: 2.33

Ask: Please give the documented protein stability index of SSDGSNFGWETKIKAWMDRYEEAN [KMT2E]
Reply: 3.83

Ask: Please give the documented protein stability index of FDLAKGNAGKVNLPKELPADAVNL [PLAGL1]
Reply: 4.5

Ask: Please give the documented protein stability index of PHTVLDRQLLCLIDYYESKIRKIH [CEP70]
Reply: 2.28

Ask: Please give the documented protein stability index of DLAKLVDQQNPTLGETPENSNLEE [ZNF449]
Reply: 5.32

Ask: Please give the documented protein stability index of HPLPTVIIVNLLWFIHLVFVVLAF [TMEM192]
Reply: 3.02

Ask: Please give the documented protein stability index of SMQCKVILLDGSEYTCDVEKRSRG [EPB41L3]
Reply: 3.61

Ask: Please give the documented protein stability index of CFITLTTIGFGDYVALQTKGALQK [KCNK9]
Reply: 2.67

###

protocol: protein stability index of a GFP-peptide fusion (GPS, HEK-293T) (PSI 1-6); higher = more stable
run-parameters: treatment: MLN4924 1 uM, 8 h; c terminus: a fixed tail appended
readout-name: protein stability index
Reply with the value as a number alone.

[
  {
    "residue-sequence": "PLSPAFFGEDGIFRHDRLRFRDFV [PBXIP1]",
    "reading": 2.91
  },
  {
    "residue-sequence": "LGQILVSVAGWSLFSLNVISLTCV [SLC19A2]",
    "reading": 3.21
  },
  {
    "residue-sequence": "LLAEREQEEAIAQFPYVEFTGRDS [TMEM106C]",
    "reading": 4.72
  },
  {
    "residue-sequence": "NAGTGLVINQADVRNNRSIIKQLK [PLD5]",
    "reading": 3.84
  },
  {
    "residue-sequence": "RVFKARIYTNRYETNEEDKTLQEI [FBXO39]",
    "reading": 3.43
  },
  {
    "residue-sequence": "NQSFNIVDIKPANMEELTEVITAA [PPP2R2B]",
    "reading": 4.26
  }
]

# input for lookup
Ask: Please give the documented protein stability index of MLAIITKMTLTQVSTWFANARRRL [IRX6]
Reply: 2.26

###

protocol: protein stability index of a GFP-peptide fusion (GPS, HEK-293T) (PSI 1-6); higher = more stable
run-parameters: treatment: DMSO; c terminus: a fixed tail appended
readout-name: protein stability index

Solved cases below.
[
  {
    "residue-sequence": "EELERRFEDEVKRLGWQQQAELQE [MTUS2]",
    "reading": 5.01
  },
  {
    "residue-sequence": "SWGWDLGRNRLYHDGKNQPSKTYP [SPSB1]",
    "reading": 3.65
  },
  {
    "residue-sequence": "LLIYTVKIRRFNKAKPEPDILEEE [TMEM192]",
    "reading": 2.31
  },
  {
    "residue-sequence": "RALQEEERAAAQARRELQAEREAL [ZBED3]",
    "reading": 5.36
  },
  {
    "residue-sequence": "DLGDIVARSESVLLHMPQPVNPEL [TRIM43]",
    "reading": 3.67
  },
  {
    "residue-sequence": "TKPSFESGRRGPPPPPRSRGPPRG [RBMX]",
    "reading": 4.74
  },
  {
    "residue-sequence": "RAPGAGLGQDRQVPLWGQLLLFLV [EMD]",
    "reading": 2.49
  },
  {
    "residue-sequence": "CQDCGRAFNQNSSLGRHKRTHTGE [ZNF8]",
    "reading": 3.73
  }
]

Ask: Please give the documented protein stability index of ELHIHRLRYLSSIWNILDLVVILL [PKD2L1]
Reply: 2.28

Ask: Please give the documented protein stability index of QFSDEVEPATPEEGEPATQRQDPA [GAGE1]
Reply: 5.6

Ask: Please give the documented protein stability index of SLKAKVSDNMSHLMVDFAQERQML [FSD1]
Reply: 3.33
